# MEASURED_TARGET: murine IL-2 receptor βγc heterodimer (mIL-2Rβγc) (mouse) (UniProt P16297)
# TEST_SUMMARY: SPR; mIL-2Rγ immobilised, saturating mIL-2Rβ in solution
pKd: −log10 of the molar value.
VALUE_TYPE: pKd

a: G2_neo2_40_1F_seq40 (designed binder) PEKKRQLLAEHALLDALMILNIIRTNSDNTESKLEDYISNLKVILEEIARLMESLGLSDEAEKAKEAMRLADKAGSTASEEEKKEAMNRVITWAQSWIFN
b: G1_neo2_40_1F_H3 (designed binder) STKKTQLLIEHALLDALNMRKKLPEPNEKLSRIITDMQSWIFTGKIDGDGAQQLAKEVEELEQEHEKRGGDVEDYASNLKVILLELA
Which entry shows the lesser value of pKd here, a or b ? Respond with the label that goes with your answer.
b
(b: 5.42, a: 7.16)
